- tgt: Amine oxidase [flavin-containing] A (Rattus norvegicus, UniProt P21396)
- Sequence (P21396 whole entry): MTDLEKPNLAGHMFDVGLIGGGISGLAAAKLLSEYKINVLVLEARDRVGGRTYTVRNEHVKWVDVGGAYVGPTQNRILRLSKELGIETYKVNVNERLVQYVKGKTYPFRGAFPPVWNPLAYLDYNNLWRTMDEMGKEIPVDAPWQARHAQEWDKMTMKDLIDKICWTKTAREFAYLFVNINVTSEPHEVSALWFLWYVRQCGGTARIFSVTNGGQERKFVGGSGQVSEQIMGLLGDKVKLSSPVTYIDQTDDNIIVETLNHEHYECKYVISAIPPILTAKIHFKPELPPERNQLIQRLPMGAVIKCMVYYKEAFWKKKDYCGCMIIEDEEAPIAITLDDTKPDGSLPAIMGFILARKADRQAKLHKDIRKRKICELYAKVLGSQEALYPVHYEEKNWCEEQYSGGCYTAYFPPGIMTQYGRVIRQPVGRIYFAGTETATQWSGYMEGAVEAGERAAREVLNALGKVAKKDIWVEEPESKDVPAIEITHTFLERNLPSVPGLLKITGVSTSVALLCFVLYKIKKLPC
pKi: −log10 of the molar value.
Header: pKi / Amine oxidase [flavin-containing] A (Rattus norvegicus, UniProt P21396) / multiple publications
readout: pKi

Recorded pKi, per entry:
INSERT INTO assay_data (compound, readout, valueobserved) VALUES
  ('O=C1CSC(c2ccc(OCc3ccccc3)cc2)CN1 (racemic)', 'pKi', 4.56),
  ('COc1ccc(C2CC(c3ccccc3)=NN2c2nc3ccccc3c(=O)n2C)cc1 (configuration not stated)', 'pKi', 5.99),
  ('O=[N+]([O-])c1ccc(C2CC(c3c4ccccc4cc4ccccc34)=NN2)cc1 (configuration not stated)', 'pKi', 7.70),
  ('COc1ccc(NC(=S)N2N=C(c3ccc(O)cc3)CC2c2ccco2)cc1 (configuration not stated)', 'pKi', 6.02),
  ('Cc1ccc(S(=O)(=O)N2N=C(c3ccccc3O)CC2c2ccccc2O)cc1 (configuration not stated)', 'pKi', 6.44);

[1] COc1cccc(NC(=S)N2N=C(c3ccc(O)cc3)CC2c2cccs2)c1 (configuration not stated)
[2] O=S(=O)(c1ccccc1)N1N=C(c2ccccc2O)CC1c1ccc(O)cc1 (configuration not stated)
Challenge: I need your help: which of the pair 1 , 2 has higher pKi? Please reply using the label of the selected record.
Response given: 1
(1: 6.74, 2: 6.17)

[A] CCCCOc1ccc(C2CNC(=O)CS2)cc1 (racemic)
[B] COc1ccc(C2CC(c3c4ccccc4cc4ccccc34)=NN2)cc1 (configuration not stated)
[C] CCc1ccc2c(c1)C(=O)c1ccc(C3=NCCN3)cc1S2(=O)=O
[D] c1ccc(C2CC(c3c4ccccc4cc4ccccc34)=NN2)cc1 (configuration not stated)
[E] COc1ccc(C2=NN(c3nc4ccccc4c(=O)n3C)C(c3ccco3)C2)cc1 (configuration not stated)
Challenge: # sort list by recorded pKi, greatest to least Write the labels, ordered according to the request.
Response given: C, B, D, E, A

* * *

pKi: −log10 of the molar value.
Here is a set of compounds with reported pKi for Amine oxidase [flavin-containing] A (Rattus norvegicus), compiled from the literature.
readout: pKi

[I] Cc1ccc(C2=NN(c3nc4ccccc4c(=O)n3C)C(c3ccco3)C2)cc1 (stereo not given)
[II] COc1cccc(NC(=S)N2N=C(c3ccc(O)cc3)CC2c2ccco2)c1 (stereo not given)
Challenge: Identify the entry with the smaller pKi: I or II . Indicate which entry you chose by stating its label.
Response given: I

[A] CCCN1CCC(c2ccc(S(C)(=O)=O)cc2)CC1
[B] Cn1c(N2N=C(c3ccccc3)CC2c2ccc(Cl)cc2)nc2ccccc2c1=O (stereo not given)
Challenge: Lab note: check whether A or B has the lower measured pKi. Please identify the chosen entry by its label.
Response given: A
